Where do the numbers come from? From patent US20250064941A1.

# SUBJECT_OF_TEST: UniProt:P35329
# Sequence (P35329 22-708 limits assumed): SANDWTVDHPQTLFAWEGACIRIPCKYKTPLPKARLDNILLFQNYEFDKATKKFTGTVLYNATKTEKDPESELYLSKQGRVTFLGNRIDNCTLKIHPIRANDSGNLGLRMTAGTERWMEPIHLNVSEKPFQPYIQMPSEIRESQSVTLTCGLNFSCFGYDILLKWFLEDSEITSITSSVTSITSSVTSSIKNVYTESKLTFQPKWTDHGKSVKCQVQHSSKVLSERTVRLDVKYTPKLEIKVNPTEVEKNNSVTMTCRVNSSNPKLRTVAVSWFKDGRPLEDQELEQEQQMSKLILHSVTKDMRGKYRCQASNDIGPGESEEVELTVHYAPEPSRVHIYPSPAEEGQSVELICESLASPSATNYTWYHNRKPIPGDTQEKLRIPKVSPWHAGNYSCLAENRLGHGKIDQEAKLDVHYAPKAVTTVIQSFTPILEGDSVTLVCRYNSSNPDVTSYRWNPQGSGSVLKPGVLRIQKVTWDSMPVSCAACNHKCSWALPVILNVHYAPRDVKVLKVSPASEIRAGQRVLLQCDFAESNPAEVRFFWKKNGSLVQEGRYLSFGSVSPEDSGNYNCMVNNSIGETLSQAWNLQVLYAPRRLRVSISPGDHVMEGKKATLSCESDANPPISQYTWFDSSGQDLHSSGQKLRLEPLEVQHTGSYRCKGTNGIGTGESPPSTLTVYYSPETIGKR
pKd: −log10 of the molar value.
MEASURED_ENDPOINT: pKd

Input: State the recorded pKd for this entry: C#CCOCCCCCCO[C@]1(C(=O)O)C[C@H](O)[C@@H](NCC(=O)N(C)C)[C@H]([C@H](O)[C@H](O)CNC(=O)Cc2ccc(Cl)cc2)O1 [Compound 180]
Output: 5.00 to 6.00

Input: State the recorded pKd for this entry: C#CCOCCCCCCO[C@]1(C(=O)O)C[C@H](O)[C@@H](NC(=O)CO)[C@H]([C@H](O)[C@H](O)CNC(=O)Cc2ccc(-c3ccc(O)cc3)cc2)O1 [Compound 63]
Output: > 6.00

Input: State the recorded pKd for this entry: CCCNC(=O)CCOCCOCCOCCn1cc(CCOc2ccc(CO[C@]3(C(=O)O)C[C@H](O)[C@@H](NC(N)=O)[C@H]([C@H](O)[C@H](O)CNC(=O)Cc4ccc(Cl)cc4)O3)cc2)nn1 [Compound 222]
Output: > 6.00

Input: State the recorded pKd for this entry: C#CCOCCOCCO[C@]1(C(=O)O)C[C@H](O)[C@@H](NC(=O)CO)[C@H]([C@H](O)[C@H](O)CNC(=O)Cc2ccc(F)c(C(F)(F)F)c2)O1 [Compound 132]
Output: < 5.00

Input: State the recorded pKd for this entry: C#CCNc1c(NCCCCCCO[C@]2(C(=O)O)C[C@H](O)[C@@H](NC(=O)CO)[C@H]([C@H](O)[C@H](O)CNC(=O)Cc3ccc(-c4ccccc4)cc3)O2)c(=O)c1=O [Compound 221]
Output: > 6.00

Input: State the recorded pKd for this entry: C#CCOCCCCCCO[C@]1(C(=O)O)C[C@H](O)[C@@H](NC(=O)COC)[C@H]([C@H](O)[C@H](O)CNC(=O)Cc2ccc(Cl)cc2)O1 [Compound 192]
Output: < 5.00
